target: Factor IXa (Homo sapiens, UniProt P00740); experiment: Determination of inhibitory activity against Factor IXa (FIXa Low Enzyme; cleavage of fluorescent peptide CH3SO2-D-CHG-Gly-Arg-AFC); assay type: biochemical; settings: fluorogenic peptide substrate CH3SO2-D-CHG-Gly-Arg-AFC.AcOH; excitation 405, emission 510
Sequence (P00740 227-461 limits assumed): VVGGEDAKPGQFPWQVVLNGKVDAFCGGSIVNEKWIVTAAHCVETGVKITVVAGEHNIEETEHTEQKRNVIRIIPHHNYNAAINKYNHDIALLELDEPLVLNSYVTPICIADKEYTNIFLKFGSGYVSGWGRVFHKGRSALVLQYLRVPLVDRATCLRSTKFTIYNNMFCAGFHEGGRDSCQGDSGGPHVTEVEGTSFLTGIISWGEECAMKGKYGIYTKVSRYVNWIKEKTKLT
Sequence (P00740 47-191 partner limits assumed): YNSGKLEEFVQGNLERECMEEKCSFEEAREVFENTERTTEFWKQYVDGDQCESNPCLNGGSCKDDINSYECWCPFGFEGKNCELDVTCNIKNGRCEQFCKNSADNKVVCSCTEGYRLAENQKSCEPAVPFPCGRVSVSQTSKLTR
endpoint: FIXa Low Enzyme (nM)

[1] C[C@]1([C@@H](O)c2nc(=O)c3c(ccc4c(N)nsc43)[nH]2)OCCN(c2ccn(-c3ccnnc3)n2)C1=O
[2] C[C@](O)(c1nc(=O)c2c(ccc3c(N)nsc32)[nH]1)[C@H]1OCCN(c2cccc(C(F)(F)F)n2)C1=O
[3] CC(C)(O)c1cccc(N2CCO[C@](C)([C@@H](O)c3nc(=O)c4c(ccc5c(N)nsc54)[nH]3)C2=O)n1
[4] C[C@]1([C@@H](O)c2nc(=O)c3c(ccc4c(N)nsc43)[nH]2)OCCN(c2ccn(-c3ccc(=O)n(C(F)F)c3)n2)C1=O
Reorder the list above by recorded FIXa Low Enzyme in ascending order. Give your ranking as a list of the labels in the requested order.
1, 4, 3, 2
